test system: ddY-strain male mice; test: Acute Toxicity Test; assay type: in vivo; settings: intraperitoneal; mortality observed for 14 days after the administration
property_label: Acute Toxicity (MLD), minimum lethal dose (mg/kg)

COC(=O)C1(C)Nc2c(OC(=O)N3CCC(N4CCCCC4)CC3)cc3c(c2C1=O)CC(Br)CN3C(=O)c1cc2cc(OC)c(OC)c(OC)c2[nH]1 (centres unmarked) [Compound 6] : 4.0
COC(=O)c1c(C)[nH]c2c(O[Si](C)(C)C(C)(C)C)cc3c(c12)CC(Br)CN3C(=O)c1cc2cc(OC)c(OC)c(OC)c2[nH]1 (centres unmarked) : 4.0
COC(=O)C1(C)Nc2c(OC(=O)N3CCN(CCN)CC3)cc3c(c2C1=O)CC(Br)CN3C(=O)c1cc2cc(OC)c(OC)c(OC)c2[nH]1 (centres unmarked) [Compound 3] : 2.0

###

As shown below, each of these compounds has a reported Acute Toxicity (MLD), minimum lethal dose value.
system: ddY-strain male mice; experiment: Acute Toxicity Test; type: in vivo; conditions: intraperitoneal; mortality observed for 14 days after the administration
property_label: Acute Toxicity (MLD), minimum lethal dose (mg/kg)

COc1cc2cc(C(=O)N3CC(Br)Cc4c3cc(OC(=O)N(C)C)c3[nH]c(C)cc43)[nH]c2c(OC)c1OC (stereo not drawn) : 0.50
COC(=O)C1(C)Nc2c(OC(=O)N3CCN(C)CC3)cc3c(c2C1=O)CC(Br)CN3C(=O)c1cc2cc(OC)c(OC)c(OC)c2[nH]1 (stereo not drawn) : 5.2
COC(=O)C1(C)Nc2c(OC(=O)N3CCC(N4CCCCC4)CC3)cc3c(c2C1=O)CC(Br)CN3C(=O)c1cc2cc(OC)c(OC)c(OC)c2[nH]1 (stereo not drawn) [Compound 5] : 2.0
COC(=O)C1(C)Nc2c(OC(=O)N3CCN(CCN)CC3)cc3c(c2C1=O)CC(Br)CN3C(=O)c1cc2cc(OC)c(OC)c(OC)c2[nH]1 (stereo not drawn) [Compound 4] : 2.0
COc1cc2cc(C(=O)N3CC(Br)Cc4c3cc(O[Si](C)(C)C(C)(C)C)c3[nH]c(C)cc43)[nH]c2c(OC)c1OC (stereo not drawn) : 8.0

Cited source: patent US5332740A
